assay: modulators of HCV replicon luciferase signal, primary screen, HCV replication inhibitor project, Huh7 cells, luciferase reporter (AID 1109); conditions: 48 h, higher = more signal;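 further: huh7 hepatoma cells harbouring a luciferase neomycin HCV replicon reporter; luciferase luminescence as measure of HCV replicon replication; test concentration not given here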
# if value of z-score reaches -0.5, tag met; if it stays below, tag not met

1. COc1ccccc1CN1C(=O)c2ccccc2[C@](Cc2ccccc2I)(C(=O)NC(C)C)[C@@H]1c1ccc(CO)cc1 : not met
2. CCOC(=O)C1=CC[C@@H](c2ccccc2)N(S(=O)(=O)c2ccc(C)cc2)C1 : not met
3. CN(C)CCCN1C(=O)[C@@]2(c3ccc([N+](=O)[O-])cc3)CC(=O)N(CC34CC5CC(CC(C5)C3)C4)[C@@H]2c2ccc(CO)cc21 : not met
4. COc1ccc(C(O)C2C=CC3C(=O)N(C)C(=O)C3N2N2CCCCC2)cc1 (stereo not drawn) : met
5. C=C(/C=C/CNS(=O)(=O)c1ccc(C)cc1)[C@H](O)[C@H]1CCCN1S(=O)(=O)c1ccccc1[N+](=O)[O-] : not met
6. O=C(O)[C@H](Cc1ccccc1)n1cc(-c2ccccn2)nn1 : met
7. NC(=O)NCC#Cc1ccc2c(c1)[C@]1(C(=O)N2)[C@H](C(=O)Nc2nc3ccccc3s2)[C@H]2C(=O)O[C@H](c3ccccc3)[C@H](c3ccccc3)N2[C@@H]1c1ccc(O)cc1 : not met

----------
tested on: Human papillomavirus type 1a protein E7 (residues 44-93); assay: HPV1a E7 fragment binders on microarrays, primary screen, biochemical, small-molecule microarray, residues 44-93, 635 nm fluorescence (AID 1108); details: small-molecule microarray binding, fluorescence 635 nm; higher = more signal;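 further: E7 fragment applied at 1 µg/mL in TBST for 1 h at 4 C; score combines spot fluorescence with its signal to noise ratio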
measured-parameter: composite z-score

1) COCC(=C=CC[C@H](O)c1ccc(OCCO)cc1)C[C@H](O)COCc1ccccc1 : 0.486
2) COc1ccc([Si](C)(C)[C@H]2[C@H](CCn3cc([C@H](O)c4ccccc4)nn3)O[C@@]3(C(=O)N(Cc4cccc(N5C(=O)c6cccc7cccc5c67)c4)c4ccccc43)[C@@H]2C)cc1 : -0.56
3) CCCCN1CC=CC23O[C@@H]4C=CCOC(=O)[C@@H]4[C@H]2C(=O)N(C(C)CO)[C@@H]3C1=O (some centres undefined) : -1.31
4) O=c1cccc(-c2ccc(C(F)(F)F)cc2)o1 : -1.57
5) C=C[C@@H](C)[C@H](OC(=O)Nc1ccc(SC)cc1)c1ccc(OCCO)cc1 : -0.868
6) Cc1ccc(F)cc1S(=O)(=O)N[C@@H]1CCN(Cc2ccc(Oc3ccccc3)cc2)C1 : -1.39
7) CCN(CC)c1ccc(N2CC=CC34O[C@@H]5/C=C\CCC(C)OC(=O)C5[C@H]3C(=O)N(CCO)[C@@H]4C2=O)cc1 (some centres undefined) : 1.14
8) CC(C)C[C@@H]1NC(=O)[C@H]2C[C@@H](C(=O)NCCCCCC[N+](C)(C)C)[C@@H](c3cccc(OCCO)c3)N2C1=O : -0.209
9) COc1ccccc1CN1C(=O)c2ccccc2[C@@H](C(=O)NC(C)C)[C@@H]1c1ccc(CO)cc1 : 0.636
10) CCOC(=CC(=O)OC)CC(O)c1cccc(Cl)c1 (centres undefined) : 1.11
11) O=C(O)[C@]1(Cc2ccccc2)N=C(c2ccc(OCCCO)cc2)O[C@@H]1c1ccccc1 : -0.218
12) [N-]=[N+]=Nc1ccccc1[C@H]1OC(c2ccc(OCCCO)cc2)=N[C@@]1(CCS(=O)(=O)c1ccccc1)C(=O)N1CCCCC1 : 1.44
13) CC(C)CNC(=O)[C@@H]1c2ccccc2C(=O)N(Cc2cc(F)cc(C(F)(F)F)c2)[C@H]1c1ccc(CO)cc1 : -0.0365
14) C=C(CCCC)/C(=C/C[C@@H](OC(C)=O)c1ccc(CO)o1)c1cc(C(=O)OC)ccc1OC : 1.45
15) NC(=O)NCC#Cc1ccc2c(c1)[C@]1(C(=O)N2)[C@H](C(=O)O)[C@H]2C(=O)O[C@H](c3ccccc3)[C@H](c3ccccc3)N2[C@@H]1c1ccccc1OCCO : 0.497
16) NC(=O)N1C(=O)C2C(C1=O)C1C=C(c3ccc(CO)cc3)C2C(C2CC2)N1Cc1sc2ccccc2c1Cl (centres undefined) : 0.0882
17) CN1C(=O)C2C=CC(C(O)c3c(F)cccc3Cl)N(Nc3ccccc3)C2C1=O (centres undefined) : 1.19
18) CC(C)(C)OC(=O)CC[C@]1(C(=O)NCCN2CCOCC2)N=C(c2ccc(OCCCO)cc2)O[C@H]1c1ccccc1 : 1.18
19) C[C@@H](OCc1ccccc1)C1NC(=O)[C@@]23C(=O)N[C@@H](Cc4ccccc4)C2[C@H](C)[C@@]2(C)O[C@H]2C3/C=C/C/C=C\CNC(=O)CNC1=O (some centres undefined) : -0.816
20) CC=CC(O)C1C=CC2C(=O)N(C)C(=O)C2N1N1CCCCC1 (centres undefined) : 1.15
21) CC(C)CN1C(=O)[C@@]2(c3ccc([N+](=O)[O-])cc3)CC(=O)N(CC34CC5CC(CC(C5)C3)C4)[C@@H]2c2ccc(CO)cc21 : -0.746
22) CC(C)C(O)C1C=CC2C(=O)N(C)C(=O)C2N1Nc1ccccc1 (centres undefined) : 0.0819
23) O=C1O[C@H](c2ccccc2)[C@H](c2ccccc2)N2[C@H]1[C@@H](C(=O)O)[C@]1(C(=O)Nc3ccccc31)[C@H]2c1ccc(O)cc1 : 0.49
24) COc1cc2c(cc1OC)CN(C(=O)[C@@H]1[C@H]3C(=O)O[C@H](c4ccccc4)[C@H](c4ccccc4)N3[C@H](c3ccccc3OCCO)[C@@]13C(=O)Nc1ccc(C#CC4(O)CCCCCC4)cc13)CC2 : 1.35
25) O=C1C2C=CC(C(O)c3cc(C(F)(F)F)cc(C(F)(F)F)c3)N(Nc3ccc([N+](=O)[O-])cc3)C2C(=O)N1c1ccccc1 (centres undefined) : 1.42
26) C=CCOC(=O)[C@H]1[C@@H]2C(=O)O[C@@H](c3ccccc3)[C@@H](c3ccccc3)N2[C@@H](c2ccc(OCCOC(=O)[C@H]3C[C@H]4C(=O)N[C@@H](Cc5ccccc5)C(=O)N4[C@H]3c3ccc(O)cc3)cc2)[C@]12C(=O)Nc1ccc(I)cc12 : 1.39
27) CN(C)CCCCNC(=O)[C@H]1C[C@H]2C(=O)N3CCC[C@H]3C(=O)N2[C@H]1c1ccc(O)cc1 : -1.11
28) C=CCOC(=O)[C@@H]1[C@H]2C(=O)O[C@H](c3ccccc3)[C@H](c3ccccc3)N2[C@H](c2ccc(OCCOC(=O)[C@H]3C[C@H]4C(=O)N[C@@H](CCCCNC(C)=O)C(=O)N4[C@H]3c3cccc(OCCO)c3)cc2)[C@@]12C(=O)Nc1ccc(I)cc12 : 0.721
29) C=C(C(=O)CC[C@H](OC(=O)c1cccnc1)c1cccc(OCCO)c1)C(C)C : 0.074
